Reported ΔTm by item:
target: Mitogen-activated protein kinase 1 (Homo sapiens) (UniProt P28482); conditions: Compound concentration 20.0 uM
Sequence (P28482 whole entry): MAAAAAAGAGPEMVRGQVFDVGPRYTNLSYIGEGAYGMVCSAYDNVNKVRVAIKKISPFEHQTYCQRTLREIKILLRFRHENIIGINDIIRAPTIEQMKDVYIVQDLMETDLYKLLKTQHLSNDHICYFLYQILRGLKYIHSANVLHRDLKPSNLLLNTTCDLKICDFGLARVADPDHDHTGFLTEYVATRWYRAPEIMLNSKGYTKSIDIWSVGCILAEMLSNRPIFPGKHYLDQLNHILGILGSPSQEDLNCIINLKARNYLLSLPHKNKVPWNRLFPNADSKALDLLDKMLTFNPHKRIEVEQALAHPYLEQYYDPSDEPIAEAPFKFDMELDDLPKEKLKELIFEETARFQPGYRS
Description: Thermal Shift Assay. Domain: start/stop: M1-S360
Write down the numeric answer in °C and omit the unit.

Worked set:
CN(C)CCCN(CC[C@H](N)C(=O)O)C[C@H]1O[C@@H](n2cnc3c(N)ncnc32)[C@H](O)[C@@H]1O: 0.04
CCN(c1cc(-c2ccc(CN3CCOCC3)cc2)cc(C(=O)NCc2c(C)cc(C)[nH]c2=O)c1C)C1CCOCC1: -4.86
O=C(NCCCn1ccnc1)c1cc2nc(-c3ccccc3)cc(-c3ccccc3)n2n1: -2.4
COc1c(CN)cc(CN)cc1OCCCN1Cc2ccccc2C1: 0.22
Cc1cc(-c2ccccc2)cc(C(=O)NNS(=O)(=O)c2ccccc2)c1F: 0

Could you tell me which ΔTm is on file for CN1CCN(c2nc(-c3ccc(C(=O)NC4(C(=O)NCC#N)CCCCC4)cc3)cs2)CC1 ? -1.88

Also check CS(=O)(=O)c1ccc(Oc2cc(F)cc(C#N)c2)c2c1C(O)C(F)C2 (stereo not given) 0.54

Also check O=C(Nc1ccccc1C(=O)O)c1cc(S(=O)(=O)c2ccccc2)ccc1Cl 0.08

Also check CCCCCCCC(=O)N[C@H](CN1CCCC1)[C@H](O)c1ccc2c(c1)OCCO2 0.14

Also check CCCCCCNC(=O)n1cc(F)c(=O)[nH]c1=O 0.03

----------
target: Bromodomain-containing protein 4 (Homo sapiens); conditions: Compound concentration 20.0 uM
Assign class by ΔTm: not lower than -1 °C means satisfied; lower than -1 °C means not satisfied.

Hello, I need to know if COC[C@@H]1CCCN1S(=O)(=O)c1ccc2c(c1)C(=O)C(=O)N2 has measured ΔTm not below -1 °C. Thanks! not satisfied

----------
biological target: Cyclin-dependent kinase 2 (Homo sapiens); conditions: Compound concentration 20.0 uM
Description: Thermal Shift Assay. Domain: start/stop: M1-L298
Reported ΔTm by item:
Please answer in the form of a number followed by its unit of measurement.

O=c1[nH][nH]c(=O)c2cc(OCC3CCCCC3)ccc12: 1.01 °C
C[C@]12CCCN1CC1=NNC(=O)c3cc(F)cc4[nH]c2c1c34: 2.04 °C
CCNC(=O)c1noc(-c2cc(C(C)C)c(O)cc2O)c1-c1ccc(CN2CCOCC2)cc1: 0.79 °C
N[C@@H](CC(=O)N1CCN(C(c2ccc(F)cc2)c2ccc(F)cc2)CC1)C(=O)N1Cc2ccccc2C1: -3.61 °C
O=C1c2ccccc2C(=O)c2oc(-c3ccc(F)cc3)nc21: -0.07 °C

Okay, next one:
Could you tell me which ΔTm is on file for CN(CC[C@@H](Oc1ccc(-c2ccccc2)cc1)c1ccc(F)cc1)CC(=O)O ? -0.22 °C

----------
molecular target: Transcription intermediary factor 1-alpha (Homo sapiens); conditions: Compound concentration 20.0 uM
Residues, ends and D or L forms follow the SMILES beside them. *: point of attachment. Cbz = O=C(OCc1ccccc1)*
Reported ΔTm by item:
Write down the numeric answer in °C and omit the unit.

Worked set:
COc1cc(Cl)ccc1C1=CN(c2ccc(-c3ccccc3OC)cc2)C2=NCCCN12: -1.41
O=C1c2ccccc2C(=O)c2oc(-c3cccnc3)nc21: -0.87
O=C(O)C1=CCCN(CCON=C(c2ccccc2)c2ccccc2)C1: 1.41
CCC(NC(=O)C(CC(C)C)NC(=O)OCc1ccccc1)C(=O)C(=O)NCCCN1CCOCC1 (configuration not stated): -1.35
CN1C[C@@H]2[C@H](C1)[C@H]2CN(Cc1ccc(F)c(Cl)c1)C(=O)c1cn(C)cn1: -1.48

Could you tell me which ΔTm is on file for CC(=O)N[C@@H](CC(C)C)C(=O)N[C@@H](CCC(=O)O)C(=O)N[C@H](C(=O)N[C@H](C=O)CC(=O)O)C(C)C (Ac-LEVD-aldehyde) ? -2.52

Also check O=CC1CCCN1C(=O)C1CCCN1C(=O)OCc1ccccc1 (stereo not drawn) (Cbz-Pro-Pro-aldehyde; configuration not given here) -0.47

Also check COc1ccc(CNc2nc(N3CCC[C@H]3CO)ncc2C(=O)NCc2ncccn2)cc1Cl -0.51

Also check CC(C)(CNC(=O)c1cccc(-c2noc(C(F)(F)F)n2)c1)c1coc(-c2ccccc2)n1 -1.82

Also check O=C(NC1CCC1)c1ccc2nc(-c3cccc(NS(=O)(=O)NCCN4CCCCC4)c3)cn2c1 0.09

Also check C[C@@H]1OC(=O)NN=C1c1ccc(-c2ccc(F)cc2)c(C(F)(F)F)c1 -0.48

Also check COc1ccc(-c2c(-c3ccc(C#N)c(F)c3)nc(N3CCC(N)CC3)n(C)c2=O)cc1F -0.36

Also check Cc1cnc(-c2ccccc2C(C)C)nc1NCc1ccc(-n2ccnn2)cc1 -0.58

----------
Target: Aurora kinase A (Homo sapiens)
Sequence (whole entry): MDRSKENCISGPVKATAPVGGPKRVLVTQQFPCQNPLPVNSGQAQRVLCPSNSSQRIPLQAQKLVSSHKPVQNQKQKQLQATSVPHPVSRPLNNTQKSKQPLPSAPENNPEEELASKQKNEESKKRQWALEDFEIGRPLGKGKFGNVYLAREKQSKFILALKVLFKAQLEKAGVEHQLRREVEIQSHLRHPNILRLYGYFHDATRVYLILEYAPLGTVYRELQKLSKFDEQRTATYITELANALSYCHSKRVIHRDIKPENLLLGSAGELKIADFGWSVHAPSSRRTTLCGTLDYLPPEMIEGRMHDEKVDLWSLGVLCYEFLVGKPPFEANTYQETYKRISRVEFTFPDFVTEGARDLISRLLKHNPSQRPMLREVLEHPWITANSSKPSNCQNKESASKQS
Conditions: Compound concentration 20.0 uM
Description: Thermal Shift Assay. Domain: start/stop: E122-S403
measured_endpoint: ΔTm (°C)
Write down the numeric answer in °C and omit the unit.

CC(C)N(C[C@H]1O[C@@H](n2cnc3c(N)ncnc32)[C@H](O)[C@@H]1O)[C@H]1C[C@@H](CCc2nc3cc(C(C)(C)C)ccc3[nH]2)C1: 0.32

Okay, next one:
Could you tell me which ΔTm is on file for COc1ccc(N2CCN(C(=O)c3cc4c(s3)-c3ccccc3S(=O)(=O)C4)CC2)cc1 ? -1.67

----------
target: Casein kinase I isoform delta (Homo sapiens) (UniProt P48730); settings: Compound concentration 20.0 uM
Sequence (P48730 whole entry, looked up, canonical isoform): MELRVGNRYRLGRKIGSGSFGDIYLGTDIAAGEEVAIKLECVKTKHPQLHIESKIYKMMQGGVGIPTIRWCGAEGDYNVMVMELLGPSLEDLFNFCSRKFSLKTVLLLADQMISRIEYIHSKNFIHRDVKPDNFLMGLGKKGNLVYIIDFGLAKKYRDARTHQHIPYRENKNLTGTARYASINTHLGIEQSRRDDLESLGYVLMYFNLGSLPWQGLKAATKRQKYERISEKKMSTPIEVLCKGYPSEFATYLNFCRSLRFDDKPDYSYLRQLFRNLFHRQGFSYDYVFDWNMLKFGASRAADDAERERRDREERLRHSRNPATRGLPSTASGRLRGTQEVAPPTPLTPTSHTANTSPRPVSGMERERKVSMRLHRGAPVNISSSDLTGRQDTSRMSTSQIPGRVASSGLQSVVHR
Description: Thermal Shift Assay. Domain: start/stop: M1-K294
Classes based on ΔTm: bottom bin: < -0.09 °C; middle bin: ≥ -0.09 °C and < 0.1 °C; top bin: ≥ 0.1 °C

Reference set (5 entries):
NC(=O)c1cccc(NC(=O)CCC(=O)NCCc2cn(CCNS(=O)(=O)c3cccc(C(=O)O)c3)nn2)c1: middle bin
CSc1cccc(Nc2ncc3cc(-c4c(Cl)cccc4Cl)c(=O)n(C)c3n2)c1: top bin
CS(=O)(=O)Nc1ccc2oc3c(OC(F)F)ccc(C(=O)Nc4c(Cl)cncc4Cl)c3c2c1: bottom bin
NS(=O)(=O)OC[C@H]1C[C@@H](Nc2ccnc3cc(-c4cccc(SC(F)(F)F)c4)nn23)[C@H](O)[C@@H]1O: top bin
Cn1ncnc1[C@H]1C2=c3c(cc(F)cc3=N[C@@H]1c1ccc(F)cc1)C(=O)NN2: bottom bin

Kindly identify the class of N#Cc1c(N)[nH]c2cc(/C=C/c3cccc(F)c3)ccc12 . bottom bin

Also check CC(=O)N[C@@H](CC(=O)O)C(=O)N[C@@H](CCC(=O)O)C(=O)N[C@H](C(=O)N[C@H](C=O)CC(=O)O)C(C)C bottom bin

Also check Cc1cc(N2C[C@@H](C)N[C@@H](C)C2)ncc1-c1ccc(-c2nc3c(ccn3C)c(=O)[nH]2)cc1 top bin

Also check CCC(NC(=O)C(CC(C)C)NC(=O)OCc1ccccc1)C(=O)C(=O)NCCCN1CCOCC1 (configuration not stated) middle bin

Also check COc1cccc(OC)c1S(=O)(=O)Nc1noc2cc(Cn3cccn3)cc(OC)c12 middle bin

Also check O=C(C=Cc1ccc(O)cc1)c1ccc(O)cc1O top bin

Also check CC(C)C(=O)c1c(C(C)C)nn2ccccc12 top bin

Also check CC(C)c1cc(C(=O)N2Cc3ccc(CN4CCN(C)CC4)cc3C2)c(O)cc1O top bin

Also check CC(C)(Sc1ccncc1-c1ccc(C#N)c2ccccc12)C(=O)O bottom bin

Also check C[C@H](NC(=O)c1cn(C2(C#N)CC2)cn1)C(=O)Nc1nc(-c2cccc(-c3ccn(C)n3)c2)cs1 top bin

----------
molecular target: Tyrosine-protein kinase ABL1 (Homo sapiens) (UniProt P00519); conditions: Compound concentration 20.0 uM
Sequence (P00519 whole entry): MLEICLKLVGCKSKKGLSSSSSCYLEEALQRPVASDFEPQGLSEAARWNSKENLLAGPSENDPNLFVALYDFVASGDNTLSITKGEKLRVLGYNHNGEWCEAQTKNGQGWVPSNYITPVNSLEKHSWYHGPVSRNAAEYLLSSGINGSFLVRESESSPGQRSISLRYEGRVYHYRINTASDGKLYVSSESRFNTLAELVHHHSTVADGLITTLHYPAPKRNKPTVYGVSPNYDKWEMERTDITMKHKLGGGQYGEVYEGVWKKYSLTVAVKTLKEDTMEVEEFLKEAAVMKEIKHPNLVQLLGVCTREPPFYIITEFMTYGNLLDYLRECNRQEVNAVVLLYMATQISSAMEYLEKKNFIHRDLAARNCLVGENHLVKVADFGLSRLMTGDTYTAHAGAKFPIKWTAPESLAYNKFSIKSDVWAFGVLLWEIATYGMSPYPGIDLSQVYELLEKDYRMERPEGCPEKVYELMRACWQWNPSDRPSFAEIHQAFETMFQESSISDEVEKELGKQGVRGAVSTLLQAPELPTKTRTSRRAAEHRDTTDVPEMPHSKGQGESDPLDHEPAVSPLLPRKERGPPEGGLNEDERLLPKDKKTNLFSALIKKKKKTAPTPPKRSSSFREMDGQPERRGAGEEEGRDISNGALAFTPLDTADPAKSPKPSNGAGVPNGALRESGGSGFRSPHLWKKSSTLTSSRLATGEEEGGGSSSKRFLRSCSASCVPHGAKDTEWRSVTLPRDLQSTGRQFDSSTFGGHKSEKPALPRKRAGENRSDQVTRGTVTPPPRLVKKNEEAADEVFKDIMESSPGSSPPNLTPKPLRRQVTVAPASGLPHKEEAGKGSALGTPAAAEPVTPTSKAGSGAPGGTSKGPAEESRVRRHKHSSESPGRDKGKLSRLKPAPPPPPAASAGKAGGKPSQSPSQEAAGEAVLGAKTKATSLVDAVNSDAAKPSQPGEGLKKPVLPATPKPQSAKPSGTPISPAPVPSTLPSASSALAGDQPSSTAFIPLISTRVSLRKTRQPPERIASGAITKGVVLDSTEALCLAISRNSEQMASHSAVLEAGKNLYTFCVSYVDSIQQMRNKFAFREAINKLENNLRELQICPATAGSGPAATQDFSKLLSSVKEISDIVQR
Description: Thermal Shift Assay. Domain: start/stop: S229-K512
measured_endpoint: ΔTm (°C)
Write down the numeric answer in °C and omit the unit.

CC(C)(C)c1ccc(S(=O)(=O)NCc2ccc(C(=O)Nc3cccnc3)cc2)cc1: 0.45
CCNC(=O)NCCSC[C@H]1O[C@@H](n2cnc3c(N)ncnc32)[C@H](O)[C@@H]1O: 0.85
CS(=O)(=O)c1ccc(Oc2cc(F)cc(C#N)c2)c2c1C(O)C(F)C2 (centres undefined): 0.53

Okay, next one:
Could you tell me which ΔTm is on file for CC(=Cc1cc(C)ccc1C=C(C)C(=O)NC(=N)N)C(=O)N=C(N)N ? 0.75
